# tested-on: IL-8 (Homo sapiens, UniProt P10145)
# Construct: human IL-8, (72 amino acids) (Cat. No. 200-08M); purchased PeproTech, Inc. 200-08M
# Sequence (P10145 28-99): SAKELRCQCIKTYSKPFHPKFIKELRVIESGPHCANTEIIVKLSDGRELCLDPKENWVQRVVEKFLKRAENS
# assay-remarks: Biovalidation: laminar flow assay, chemokine and VCAM-1 activated adhesion of T cells
# Assay type: cell-based
# measurement-setup: T cell adhesion under flow, VCAM-1

| residue-string | Abolishment of the activity of IL-8 |
| --- | --- |
| QIPQMRILHPYG [BKT-P23] | no effect |
| SAGHIHEAHRPL [BKT-P39] | no effect |
| HHFHLPKLRPPV [BKT-P45] | 100% |

* * *

# tested-on: MIG (Homo sapiens, UniProt Q07325)
# Construct: purchased PeproTech, Inc. 300-26
# Sequence (Q07325 23-125): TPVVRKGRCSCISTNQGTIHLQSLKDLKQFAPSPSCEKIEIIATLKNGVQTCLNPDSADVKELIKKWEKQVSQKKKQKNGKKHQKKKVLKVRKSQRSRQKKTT
# assay-remarks: ELISA analysis of the synthetic chemokine-binding peptide
# measurement-setup: chemokine-coated wells, specific binding = at least two fold of binding to control proteins (BSA, Actin, Fibronectin)
reported-property: Bound chemokines (at least): MIG

| residue-string | data-value |
| --- | --- |
| HPTTPFIHMPNF (HPTTPIHMPNF) [BKT-P54] | MIG |
| HHFHLPKLRPPV [BKT-P45] | MIG |
| CAHLSPHKC [BKT-P50] | MIG |
